src = patent US11415579B2

- targetSystem: Cdk2(C177A, F80C) (Homo sapiens, UniProt P24941, C177A/F80C)
- Construct: poly-histidine; made in house; host or cells: E. coli
- experiment: Kinetic thiol consumption assay with Cdk2 mutant F80C, incl. kobs versus concentration (Kd, k2)
- Format: binding
- testSettings: Protein: Cdk2; cysteine position F80C; additional mutation C177A; in h^-1
Exercise: state measured Rate constant with Cdk2 F80C for each of the compounds provided.
Please reply with the number alone, leaving off any unit.

Return the recorded Rate constant with Cdk2 F80C value; entry: "C=CC(=O)Nc1ccccc1N1CCOCC1"
0.025

Item C=CC(=O)N1CCC2CCC(C1)N2C (centres unmarked) : provide Rate constant with Cdk2 F80C
0.002972

Indicate the recorded Rate constant with Cdk2 F80C value for this compound: "C=CC(=O)N(Cc1ccco1)Cc1ccco1"
0.03506

Check the records and state Rate constant with Cdk2 F80C for "C=CC(=O)NCCNC(=O)c1ccccc1"
0.07999

Specify reported Rate constant with Cdk2 F80C for the compound shown: C=CC(=O)N1CCCC1c1ccc(OC)cc1 (centres unmarked)
0.006191

Identify Rate constant with Cdk2 F80C associated with the compound "C=CC(=O)Nc1cccc(Nc2ncnc3cc(OC)c(OC)cc23)c1"
0.001799

Provide measured Rate constant with Cdk2 F80C value, entry: "C=CC(=O)Nc1cccc(-c2cc3ccccc3[nH]2)c1"
0.008291

Answer with the recorded Rate constant with Cdk2 F80C of "C=CC(=O)N1CCN(c2cc(N3CCOCC3)ncn2)CC1" only.
0.002671

Provide Rate constant with Cdk2 F80C value for the following compound: "C=CC(=O)NCc1ccccc1"
0.003513

Supply reported Rate constant with Cdk2 F80C belonging to this compound: "C=CC(=O)NC1(C(N)=O)CCCCC1"
0.001226

Return reported Rate constant with Cdk2 F80C. Input compound: C=CC(=O)N1CCC2(CCCN(Cc3ccccc3)C2)C1 (centres unmarked)
0.001715

Determine from records and report Rate constant with Cdk2 F80C for "C=CC(=O)NCC1(NC(=O)OC(C)(C)C)CCCCC1"
0.009355

Dear colleague, please send me the reported Rate constant with Cdk2 F80C for "C=CC(=O)N1CCCc2cc(C(=O)OC)ccc21" when you can.
3.073

Supply measured Rate constant with Cdk2 F80C of "C=CC(=O)N1CCC2(CC1)NC(=O)C1(CCCCC1)N2" in your reply.
0.001988

Assign Rate constant with Cdk2 F80C to the following record: "C=CC(=O)Nc1nc2cc3c(cc2s1)OC(F)(F)O3"
0.1954

Output measured Rate constant with Cdk2 F80C for this item: C=CC(=O)N1CCCC1c1cnc2ccccc2c1 (centres unmarked)
0.01966

Report Rate constant with Cdk2 F80C for C=CC(=O)NC1C2C3CCC(C3)C12 (centres unmarked)
0.001856

Quickly give me recorded Rate constant with Cdk2 F80C for "C=CC(=O)Nc1nc2c(s1)CCCCCC2"
0.9829

Quote Rate constant with Cdk2 F80C reported for C=CC(=O)N1CCCCCC1c1cccs1 (centres unmarked) please.
0.009353

Provide only the value of recorded Rate constant with Cdk2 F80C for "C=CC(=O)NC1(c2noc(C)n2)CCCCCC1"
0.003047

Entry "C=CC(=O)Nc1ccc(C(=O)OC)cc1" needs its Rate constant with Cdk2 F80C filled in; supply it.
0.07185

Recall and state the measured Rate constant with Cdk2 F80C for "C=CC(=O)N1CCCN(Cc2noc(C3CC3)n2)CC1" .
0.001299

Could you please provide reported Rate constant with Cdk2 F80C for "C=CC(=O)N1CCN(c2ccccc2[N+](=O)[O-])CC1" ? Thanks!
0.01742

Please look at this compound and report its Rate constant with Cdk2 F80C: "C=CC(=O)Nc1nc2ccccc2n1CCc1ccccn1"
0.02063

Could you please provide reported Rate constant with Cdk2 F80C for "C=CC(=O)Nc1ccc(C23CC4CC(CC(O)(C4)C2)C3)cc1" ? Thanks!
0.004454
